Record form. Attribute: melting point. Fill in for each entry.

>>> df
                                   compound      parameter       result
0  CCN(CC)Cc1cc(NC(=O)Nc2ccc(Oc3cc(NC)ncn3)cc2)cc(C(F)(F)F)c1 [Example 11]  melting point  68 to 70 °C

Lab note: each compound below needs its melting point filled in.
1. CNc1cc(Oc2ccc(NC(=O)Nc3ccc(-c4ccccn4)c(C(F)(F)F)c3)cc2)ncn1 [Example 61]
2. Nc1cc(Oc2ccc(NC(=O)Nc3ccc(-c4ccncc4)c(C(F)(F)F)c3)cc2)ncn1 [Example 59]
3. CNc1cc(Oc2ccc(NC(=O)Nc3ccc(CN4CCNCC4)c(C(F)(F)F)c3)cc2)ncn1 [Example 19-2]
4. CN(C)Cc1ccc(NC(=O)Nc2ccc(Oc3cc(Cl)ncn3)cc2)cc1C(F)(F)F [Example 20-2]
5. CNc1cc(Oc2ccc(NC(=O)Nc3ccc(-c4cccc(C)n4)c(C(F)(F)F)c3)cc2)ncn1 [Example 64]
6. CC(C)N1CCN(Cc2cc(NC(=O)Nc3ccc(Oc4cc(Cl)ncn4)cc3)cc(C(F)(F)F)c2)CC1 [Example 5]
7. Cc1cccc(-c2ccc(NC(=O)Nc3ccc(Oc4cc(N)ncn4)cc3)cc2C(F)(F)F)n1 [Example 60]
8. CNc1cc(Oc2ccc(NC(=O)Nc3ccc(-c4ccncc4)c(C(F)(F)F)c3)cc2)ncn1 [Example 63]

output:
["114 to 118 °C", "131 to 135 °C", "197 to 198 °C", "98 to 105 °C", "106 to 109 °C", "101 °C", "130 to 133 °C", "127 to 130 °C"]

Lab note: each compound below needs its melting point filled in.
1. CCN1CCN(Cc2ccc(NC(=O)Nc3ccc(Oc4cc(Cl)ncn4)cc3)cc2)CC1 [Example 27]
2. CNc1cc(Oc2ccc(NC(=O)Nc3ccc(-c4cccnc4)c(C(F)(F)F)c3)cc2)ncn1 [Example 62]

output:
1. 203 to 204 °C
2. 118 to 123 °C
